target: CDK9/CycT1 (Homo sapiens); test: Kinase profiling; conditions: 10 semi-logarithmic dilutions from 50 μM, singlicate
Sequence (P50750 whole entry): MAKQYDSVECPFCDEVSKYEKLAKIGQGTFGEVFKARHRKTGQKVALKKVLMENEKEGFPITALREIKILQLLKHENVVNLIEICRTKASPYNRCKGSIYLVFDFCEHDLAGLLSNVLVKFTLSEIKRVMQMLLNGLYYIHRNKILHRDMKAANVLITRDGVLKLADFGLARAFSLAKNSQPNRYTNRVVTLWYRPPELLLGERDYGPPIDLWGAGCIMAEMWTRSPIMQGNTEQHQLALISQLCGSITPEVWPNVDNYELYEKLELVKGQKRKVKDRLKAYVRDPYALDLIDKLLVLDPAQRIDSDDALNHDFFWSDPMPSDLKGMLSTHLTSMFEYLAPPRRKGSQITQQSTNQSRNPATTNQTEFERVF
Sequence (O60563 whole entry partner): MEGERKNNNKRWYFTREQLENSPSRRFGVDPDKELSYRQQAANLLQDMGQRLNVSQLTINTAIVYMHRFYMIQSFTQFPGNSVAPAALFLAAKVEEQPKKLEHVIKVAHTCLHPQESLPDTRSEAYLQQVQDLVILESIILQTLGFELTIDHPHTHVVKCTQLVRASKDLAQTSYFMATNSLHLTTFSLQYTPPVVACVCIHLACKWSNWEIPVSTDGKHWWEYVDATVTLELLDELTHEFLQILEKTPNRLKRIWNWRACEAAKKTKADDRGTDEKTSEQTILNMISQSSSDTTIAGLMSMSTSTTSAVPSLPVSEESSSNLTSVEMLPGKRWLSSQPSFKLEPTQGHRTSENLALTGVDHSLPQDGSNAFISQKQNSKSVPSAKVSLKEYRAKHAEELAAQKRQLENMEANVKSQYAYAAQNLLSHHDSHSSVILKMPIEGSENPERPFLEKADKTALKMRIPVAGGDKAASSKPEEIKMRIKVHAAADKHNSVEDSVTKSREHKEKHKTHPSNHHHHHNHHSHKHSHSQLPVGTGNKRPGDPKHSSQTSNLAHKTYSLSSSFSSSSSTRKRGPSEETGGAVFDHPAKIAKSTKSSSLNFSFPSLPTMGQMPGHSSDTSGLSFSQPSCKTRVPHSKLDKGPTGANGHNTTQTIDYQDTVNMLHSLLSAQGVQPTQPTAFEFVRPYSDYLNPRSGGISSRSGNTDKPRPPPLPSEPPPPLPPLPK
Strictly below 200 nM in IC50: T. Otherwise: F.

Q) Hello, I'm reviewing records and need to know if IC50 of CC(=O)c1c(C)c2cnc(Nc3ccc(N4CCNCC4)cc3)nc2n([C@@H]2CC3CCC2C3)c1=O (some centres unmarked) [PS010] is below 200 nM. Could you check?
A) T

Q) Dear reviewer, please state whether O=c1ccc2cnc(Nc3ccc(N4CCC(CCCO)CC4)c(F)c3)nc2n1[C@@H]1CC2CCC1C2 (some centres unmarked) [PS003] has IC50 strictly beneath 200 nM.
A) F

Q) Please check: IC50 for CC(O)COC1CCN(c2ccc(Nc3ncc4ccc(=O)n([C@@H]5CC6CCC5C6)c4n3)cc2)CC1 (some centres unmarked) [PS006] , strictly under 200 nM or not?
A) F

Q) Report whether reported IC50 is lower than 200 nM (strictly) for CC(=O)c1c(C)c2cnc(Nc3ccc(N4CCC(CCCO)CC4)cc3)nc2n(C2CCCC2)c1=O [PS009]
A) T

Q) Is IC50 of O=c1ccc2cnc(Nc3ccc(N4CCC(CCCO)CC4)cc3)nc2n1C1CC2CCC1C2 (centres unmarked) [PD-0183812, reference compound] strictly below 200 nM?
A) F

Q) # strict comparison: is reported IC50 < 200 nM? input = O=c1ccc2cnc(Nc3ccc(N4CCC(CCCO)CC4)cc3F)nc2n1[C@@H]1CC2CCC1C2 (some centres unmarked) [PS002]
A) F

Q) Below 200 nM on IC50? Entry CC(=O)c1c(C)c2cnc(Nc3ccc(N4CCC(CCCO)CC4)cc3)nc2n([C@@H]2CC3CCC2C3)c1=O (some centres unmarked) [PS008]
A) T

Q) Quick check: IC50 of O=c1ccc2cnc(Nc3ccc(N4CCNCC4)cc3)nc2n1[C@@H]1CC2CCC1C2 (some centres unmarked) [PS007] under 200 nM?
A) T

====

target: CDK4/CycD3 (Homo sapiens); assay: Kinase profiling; assay type: biochemical; conditions: 10 semi-logarithmic dilutions from 50 μM, singlicate
Sequence (P11802 whole entry): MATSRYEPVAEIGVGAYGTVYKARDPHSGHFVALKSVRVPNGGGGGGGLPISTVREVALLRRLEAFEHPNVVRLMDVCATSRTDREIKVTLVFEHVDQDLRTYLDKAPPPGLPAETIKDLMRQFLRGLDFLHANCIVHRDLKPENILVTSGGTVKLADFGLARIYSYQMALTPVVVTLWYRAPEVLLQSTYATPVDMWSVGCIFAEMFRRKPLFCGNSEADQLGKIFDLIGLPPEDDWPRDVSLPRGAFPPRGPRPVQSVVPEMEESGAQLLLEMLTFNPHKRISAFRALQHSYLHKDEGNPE
Sequence (P30281 whole entry partner): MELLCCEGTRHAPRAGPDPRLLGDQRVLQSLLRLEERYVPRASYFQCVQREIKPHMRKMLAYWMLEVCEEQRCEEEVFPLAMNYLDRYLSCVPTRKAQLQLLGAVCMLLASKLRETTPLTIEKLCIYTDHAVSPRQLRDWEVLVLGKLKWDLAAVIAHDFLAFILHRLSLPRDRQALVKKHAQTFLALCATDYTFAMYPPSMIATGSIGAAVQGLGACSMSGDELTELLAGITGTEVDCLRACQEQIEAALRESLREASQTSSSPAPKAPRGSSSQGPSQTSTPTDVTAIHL
quantity.kind: IC50 (nM)
Note: unit nM is implicit; provide only the numeric part.

Q) # returns recorded IC50 (system: CDK4/CycD3 (Homo sapiens)) for CC(=O)c1c(C)c2cnc(Nc3ccc(N4CCNCC4)cc3)nc2n([C@@H]2CC3CCC2C3)c1=O (stereo partly shown)
A) 5.48

Q) Form field - read-out: IC50; system: CDK4/CycD3 (Homo sapiens); submitted item: O=c1ccc2cnc(Nc3ccc(N4CCNCC4)cc3)nc2n1[C@@H]1CC2CCC1C2 (stereo partly shown)
A) 2.25

Q) Form entry - test system: CDK4/CycD3 (Homo sapiens); read-out: IC50; compound: CC(O)CCN1CCN(c2ccc(Nc3ncc4ccc(=O)n([C@@H]5CC6CCC5C6)c4n3)cc2)CC1 (stereo partly shown)
A) 2.97

Q) Identify the measured IC50 of CC(O)COC1CCN(c2ccc(Nc3ncc4ccc(=O)n([C@@H]5CC6CCC5C6)c4n3)cc2)CC1 (stereo partly shown) for CDK4/CycD3 (Homo sapiens).
A) 46.6

Q) Which measured IC50 belongs to CC(=O)c1c(C)c2cnc(Nc3ccc(N4CCC(CCCO)CC4)cc3)nc2n([C@@H]2CC3CCC2C3)c1=O (stereo partly shown) , tested on CDK4/CycD3 (Homo sapiens)?
A) 261

Q) Under CDK4/CycD3 (Homo sapiens): IC50 value of O=c1ccc2cnc(Nc3ccc(N4CCC(CCCO)CC4)cc3F)nc2n1[C@@H]1CC2CCC1C2 (stereo partly shown) ?
A) 3840

Q) Param readout = IC50; param system = CDK4/CycD3 (Homo sapiens); param query = CC(=O)c1c(C)c2cnc(Nc3ccc(N4CCC(CCCO)CC4)cc3)nc2n(C2CCCC2)c1=O ; response: value
A) 55.4

Q) Recall the recorded IC50 for CC(O)CCC1CCN(c2ccc(Nc3ncc4ccc(=O)n([C@@H]5CC6CCC5C6)c4n3)cc2)CC1 (stereo partly shown) with CDK4/CycD3 (Homo sapiens) and state it.
A) 123

Q) For the record O=c1ccc2cnc(Nc3ccc(N4CCC(CCCO)CC4)c(F)c3)nc2n1[C@@H]1CC2CCC1C2 (stereo partly shown) , what value of IC50 is listed for CDK4/CycD3 (Homo sapiens)?
A) 376

Q) Can you look up IC50 on CDK4/CycD3 (Homo sapiens) for O=c1ccc2cnc(Nc3ccc(N4CCC(OCC5(CO)COC5)CC4)cc3)nc2n1[C@@H]1CC2CCC1C2 (stereo partly shown) ?
A) 20.8
